tested on: HFF; assay: Inhibitory concentration against human respiratory syncytial virus strain A2 in human foreskin fibroblasts; format: functional, cell-based
READOUT_TYPE: IC50 (nM)
# output: bare number, implied unit nM

O=S(=O)(O)c1cc(Nc2nc(Nc3cccc(S(=O)(=O)N(CCO)CCO)c3)nc(Nc3cccc(S(=O)(=O)N(CCO)CCO)c3)n2)ccc1-c1ccc(Nc2nc(Nc3cccc(S(=O)(=O)N(CCO)CCO)c3)nc(Nc3cccc(S(=O)(=O)N(CCO)CCO)c3)n2)cc1S(=O)(=O)O 90

Next up:
Task item: Check the records and state IC50 for `NC(=O)CN(CC(N)=O)S(=O)(=O)c1cccc(Nc2nc(Nc3cccc(S(=O)(=O)N(CC(N)=O)CC(N)=O)c3)nc(Nc3ccc(-c4ccc(Nc5nc(Nc6cccc(S(=O)(=O)N(CC(N)=O)CC(N)=O)c6)nc(Nc6cccc(S(=O)(=O)N(CC(N)=O)CC(N)=O)c6)n5)cc4S(=O)(=O)O)c(S(=O)(=O)O)c3)n2)c1`
Reply: 50
